Study target: T1, monkey CD22 protein (ACROBiosystems, catalog number SI2-R52Ha) (monkey, UniProt F6W485 20-688)
T1 construct: commercial protein; also called monkey CD22-ECD; monkey CD22-ECD-His
T1 sequence: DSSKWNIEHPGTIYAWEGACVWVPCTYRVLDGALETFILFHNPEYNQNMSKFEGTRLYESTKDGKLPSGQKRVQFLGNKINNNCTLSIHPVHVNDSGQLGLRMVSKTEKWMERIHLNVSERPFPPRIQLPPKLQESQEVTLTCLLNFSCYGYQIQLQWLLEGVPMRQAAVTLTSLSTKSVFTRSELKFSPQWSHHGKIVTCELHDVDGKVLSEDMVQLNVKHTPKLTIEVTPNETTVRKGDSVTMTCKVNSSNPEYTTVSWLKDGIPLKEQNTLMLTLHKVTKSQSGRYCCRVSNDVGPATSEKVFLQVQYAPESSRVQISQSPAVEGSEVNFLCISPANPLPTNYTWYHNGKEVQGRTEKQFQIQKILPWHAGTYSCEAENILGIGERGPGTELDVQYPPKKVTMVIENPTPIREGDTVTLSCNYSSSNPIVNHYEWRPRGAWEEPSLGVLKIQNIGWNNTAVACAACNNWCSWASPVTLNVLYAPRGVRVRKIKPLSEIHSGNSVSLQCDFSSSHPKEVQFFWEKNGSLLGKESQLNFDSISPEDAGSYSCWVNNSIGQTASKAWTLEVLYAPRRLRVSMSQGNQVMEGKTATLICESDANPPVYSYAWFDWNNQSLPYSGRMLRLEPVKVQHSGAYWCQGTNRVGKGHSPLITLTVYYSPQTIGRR
Method description: ELISA, coated monkey CD22 protein, antibody 0.1 nM
Procedure: In order to detect the binding activity of CD22 human-murine chimeric antibodies to CD22 protein, the purified human CD22-ECD-His protein obtained in Example 2 was diluted with PBS to a final concentration of 2 μg/mL, and then added to 96-well ELISA plate at 100 μl/well. The plate was sealed with plastic film and incubated overnight at 4° C., the plate was washed 2 times with PBS the next day, and then a blocking solution [PBS+2% (w/w) BSA] was added for blocking at room temperature for 2 hours. […]

Binder	OD450
F2.151.13 (antibody, human IgG1, lambda, V domains shown, human-murine chimeric IgG1 lambda) VH: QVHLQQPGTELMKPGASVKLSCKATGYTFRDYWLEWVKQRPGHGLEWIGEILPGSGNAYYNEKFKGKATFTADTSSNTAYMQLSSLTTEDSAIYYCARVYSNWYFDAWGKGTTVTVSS VL: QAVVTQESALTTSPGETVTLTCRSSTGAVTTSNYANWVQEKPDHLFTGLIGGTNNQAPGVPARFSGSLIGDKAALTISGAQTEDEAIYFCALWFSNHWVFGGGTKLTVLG	1.6 OD450
F1.172.13 (antibody, human IgG1, kappa, V domains shown, human-murine chimeric IgG1 kappa) VH: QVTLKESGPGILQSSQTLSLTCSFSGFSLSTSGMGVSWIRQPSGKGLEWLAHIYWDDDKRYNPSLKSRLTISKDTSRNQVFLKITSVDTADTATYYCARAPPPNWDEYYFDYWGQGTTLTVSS VL: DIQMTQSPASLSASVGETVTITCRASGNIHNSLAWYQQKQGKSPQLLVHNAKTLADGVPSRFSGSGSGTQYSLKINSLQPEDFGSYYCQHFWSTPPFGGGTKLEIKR	2.78 OD450
